Where do the numbers come from? From paper PMC9482650.

Tgt: PDLIM1, O00151
Sequence (O00151 1-87): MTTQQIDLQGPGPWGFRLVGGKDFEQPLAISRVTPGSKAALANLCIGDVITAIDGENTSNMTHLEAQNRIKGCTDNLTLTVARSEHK
Assay remarks: holdup assay
Design: key: below the threshold = too weak to quantify, mostly under pKd 3.1 to 4
Test parameters: plain residues with an end cap or a label only (N-terminal biotin on a linker: ttds)

| Binder | pKd |
| --- | --- |
| PKTPPTDTSV [KIR3DL3, Q8N743] | below the threshold |
| RSLEEEESQL [GRASP, Q7Z6J2] | 3.85 |
| SRPQRTQTQV [HPV67-E6, A4U7F2] | below the threshold |
| IDNDTESTAL [ARHGAP17, Q68EM7] | below the threshold |
| VLRLQSETSV [VANGL1, Q8TAA9] | below the threshold |
| SVWLRKETRV [CYSLTR2, Q9NS75] | below the threshold |
| QSARYRDTEL [TJP2, Q9UDY2] | 3.69 |
| ERKLSSESQV [LRP4, O75096] | below the threshold |
